Test system: blackgrass
Measurement protocol: Test B pre/postemergence blackgrass
Format: in vivo, Alopecurus myosuroides
Cond: Rate 250 g/ha, Postemergence; scale of 0 to 10 where 0 is no effect and 10 is complete control
Labelling: Plant response rating, Blackgrass reported below 5 becomes 1; at or above becomes -1.

{"Compound structure": "CC(C)N(C(=O)n1oc(=O)n(C[Si](C)(C)C)c1=O)c1ccc(Cl)cc1", "Category": 1}
{"Compound structure": "COCCOCn1c(=O)on(C(=O)N(c2ccc(Cl)cc2)C(C)C)c1=O", "Category": -1}
{"Compound structure": "CCCCCn1c(=O)on(C(=O)N(c2ccccc2)C(C)C)c1=O", "Category": 1}
{"Compound structure": "C=CCCCn1c(=O)on(C(=O)N(c2ccccc2)C(C)C)c1=O", "Category": 1}
{"Compound structure": "CCC=CCn1c(=O)on(C(=O)N(c2ccc(F)cc2F)C(C)C)c1=O", "Category": 1}
{"Compound structure": "CC(C)N(C(=O)n1oc(=O)n(CCCCF)c1=O)c1ccc(F)cc1", "Category": -1}

* * *

Quick list: Blackgrass plant response rating per entry.
Tested on: blackgrass
Measurement protocol: Test B pre/postemergence blackgrass
Type: in vivo, Alopecurus myosuroides
Cond: Rate 125 g/ha; Preemergence; scale of 0 to 10 where 0 is no effect and 10 is complete control

{"Molecule": "[2H]C([2H])([2H])n1c(=O)on(C(=O)N(c2ccc(F)cc2)C(C)C)c1=O [Compound 245]", "Blackgrass plant response rating": 10}
{"Molecule": "Cc1nc(C)c(Cn2c(=O)on(C(=O)N(c3ccc(F)cc3F)C(C)C)c2=O)s1 [Compound 233]", "Blackgrass plant response rating": 2}
{"Molecule": "Cc1ccccc1-n1c(=O)on(C(=O)N(c2ccc(C(C)C)cc2)C(C)C)c1=O [Compound 231]", "Blackgrass plant response rating": 0}
{"Molecule": "CC(C)N(C(=O)n1oc(=O)n(C2CCCC2)c1=O)c1ccc(F)cc1 [Compound 271]", "Blackgrass plant response rating": 9}
{"Molecule": "COc1cc(C)cc(C)c1-n1c(=O)on(C(=O)N(c2ccc(F)cc2)C(C)C)c1=O [Compound 222]", "Blackgrass plant response rating": 0}
{"Molecule": "Cc1ccccc1-n1c(=O)on(C(=O)N(c2ccc(Oc3ccccc3)cc2)C(C)C)c1=O [Compound 268]", "Blackgrass plant response rating": 0}

* * *

Tested on: crabgrass
Measurement protocol: Test B pre/postemergence crabgrass
Assay type: in vivo, Digitaria sanguinalis
Cond: Preemergence, Rate 250 g/ha; scale 0 to 10, 0 is no effect, 10 is complete control
Quick list: Crabgrass plant response rating per entry.

{"Compound": "Cc1nsc(C)c1-n1c(=O)on(C(=O)N(c2ccc(F)cc2F)C(C)C)c1=O [Compound 158]", "Crabgrass plant response rating": 4}
{"Compound": "CCc1nc(C)c(C(C)n2c(=O)on(C(=O)N(c3ccc(F)cc3)C(C)C)c2=O)s1 (stereo not shown) [Compound 449]", "Crabgrass plant response rating": 9}
{"Compound": "CC(C)N(C(=O)n1oc(=O)n(CC#N)c1=O)c1ccc(F)cc1 [Compound 395]", "Crabgrass plant response rating": 0}
{"Compound": "CC(C)N(C(=O)n1oc(=O)n(C(C)C#N)c1=O)c1ccccc1 (stereo not shown) [Compound 435]", "Crabgrass plant response rating": 6}
{"Compound": "CC(C)N(C(=O)n1oc(=O)n(CCC#N)c1=O)c1ccc(Cl)cc1 [Compound 444]", "Crabgrass plant response rating": 9}
{"Compound": "Cc1ccccc1-n1c(=O)on(C(=O)N(c2c(F)cccc2F)C(C)C)c1=O [Compound 176]", "Crabgrass plant response rating": 9}
{"Compound": "CC(C)Cn1c(=O)on(C(=O)N(c2ccccc2)C(C)C)c1=O [Compound 410]", "Crabgrass plant response rating": 10}

* * *

Tested on: sugar beet
Measurement protocol: Test B pre/postemergence sugar beet
Type: in vivo, Beta vulgaris
Cond: Postemergence, Rate 500 g/ha; scale 0 to 10, 0 is no effect, 10 is complete control
Quick list: Plant response rating, Sugarbeets per entry.

{"Compound structure": "CC(C)N(C(=O)n1oc(=O)n(CC2CCC2)c1=O)c1ccc(Cl)cc1", "Plant response rating, Sugarbeets": 5}
{"Compound structure": "CC(=O)OCCCCn1c(=O)on(C(=O)N(c2ccc(Cl)cc2)C(C)C)c1=O", "Plant response rating, Sugarbeets": 0}
{"Compound structure": "CC(C)N(C(=O)n1oc(=O)n(CC2CC2)c1=O)c1ccc(F)cc1F", "Plant response rating, Sugarbeets": 7}
{"Compound structure": "CCC=CCn1c(=O)on(C(=O)N(c2ccc(F)cc2F)C(C)C)c1=O", "Plant response rating, Sugarbeets": 0}

* * *

Tested on: soybean
Measurement protocol: Test B pre/postemergence soybean
Type: in vivo, Glycine max
Cond: Preemergence, Rate 125 g/ha; scale of 0 to 10 where 0 is no effect and 10 is complete control
Quick list: Soybean plant response rating per entry.
Parameter measured: Soybean plant response rating

{"Compound": "C#CC(C)n1c(=O)on(C(=O)N(c2ccccc2)C(C)C)c1=O (stereo not shown) [Compound 609]", "Target or test system": "soybean", "Measured": 6}
{"Compound": "CC(C)N(C(=O)n1oc(=O)n(CC(=O)C2CCC2)c1=O)c1ccc(F)cc1F [Compound 642]", "Target or test system": "soybean", "Measured": 0}
{"Compound": "CC(C)N(C(=O)n1oc(=O)n(C(C)CBr)c1=O)c1ccc(F)cc1F (stereo not shown) [Compound 594]", "Target or test system": "soybean", "Measured": 0}
{"Compound": "CCCCCCn1c(=O)on(C(=O)N(c2ccc(F)cc2F)C(C)C)c1=O [Compound 637]", "Target or test system": "soybean", "Measured": 0}

* * *

Quick list: Bedstraw plant response rating per entry.
System: bedstraw
Measurement protocol: Test B pre/postemergence bedstraw
Type: in vivo, Galium aparine
Cond: Preemergence, Rate 125 g/ha; scale 0 to 10, 0 is no effect, 10 is complete control

{"Compound structure": "CCCCCn1c(=O)on(C(=O)N(c2ccccc2)C(C)C)c1=O", "Bedstraw plant response rating": 0}
{"Compound structure": "CC(C)N(C(=O)n1oc(=O)n(CC2=NCCCO2)c1=O)c1ccccc1", "Bedstraw plant response rating": 0}
{"Compound structure": "CCOC(=O)C=C(Cn1c(=O)on(C(=O)N(c2ccc(Cl)cc2)C(C)C)c1=O)OCC", "Bedstraw plant response rating": 0}
{"Compound structure": "CCC=CCn1c(=O)on(C(=O)N(c2ccc(F)cc2F)C(C)C)c1=O", "Bedstraw plant response rating": 0}
{"Compound structure": "CC(C)N(C(=O)n1oc(=O)n(C[Si](C)(C)C)c1=O)c1ccc(Cl)cc1", "Bedstraw plant response rating": 10}
{"Compound structure": "CCN(CC)C(=O)Cn1c(=O)on(C(=O)N(c2ccc(F)cc2F)C(C)C)c1=O", "Bedstraw plant response rating": 0}

* * *

System: pigweed
Measurement protocol: Test B pre/postemergence pigweed
Type: in vivo, Amaranthus retroflexus
Cond: Preemergence, Rate 125 g/ha; scale 0 to 10, 0 is no effect, 10 is complete control
Quick list: Redroot pigweed plant response rating per entry.

{"Compound structure": "CC(C)N(C(=O)n1oc(=O)n(CC2=NCCCO2)c1=O)c1ccccc1", "Target or test system": "pigweed", "Redroot pigweed plant response rating": 0}
{"Compound structure": "CC(C)N(C(=O)n1oc(=O)n(CCc2ccccc2)c1=O)c1ccccc1", "Target or test system": "pigweed", "Redroot pigweed plant response rating": 0}
{"Compound structure": "CCC=CCn1c(=O)on(C(=O)N(c2ccc(F)cc2F)C(C)C)c1=O", "Target or test system": "pigweed", "Redroot pigweed plant response rating": 9}
{"Compound structure": "CCCCCn1c(=O)on(C(=O)N(c2ccccc2)C(C)C)c1=O", "Target or test system": "pigweed", "Redroot pigweed plant response rating": 0}
{"Compound structure": "CC(C)N(C(=O)n1oc(=O)n(CCCNC(=O)CCl)c1=O)c1ccccc1", "Target or test system": "pigweed", "Redroot pigweed plant response rating": 0}

* * *

Quick list: Blackgrass plant response rating per entry.
Test system: blackgrass
Measurement protocol: Test B pre/postemergence blackgrass
Format: in vivo, Alopecurus myosuroides
Cond: Preemergence, Rate 62 g/ha; scale of 0 to 10 where 0 is no effect and 10 is complete control
Parameter measured: Blackgrass plant response rating

{"Compound": "CC(C)N(C(=O)n1oc(=O)n(C2CC3CCC2C3)c1=O)c1ccc(F)cc1 (centres unmarked)", "Parameter measured": "Blackgrass plant response rating", "Measured": 0}
{"Compound": "Cc1ccccc1-n1c(=O)on(C(=O)N(c2ccc(C(C)C)cc2)C(C)C)c1=O", "Parameter measured": "Blackgrass plant response rating", "Measured": 0}
{"Compound": "Cc1ccccc1-n1c(=O)on(C(=O)N(c2ccc(Oc3ccccc3)cc2)C(C)C)c1=O", "Parameter measured": "Blackgrass plant response rating", "Measured": 0}
{"Compound": "CC(C)N(C(=O)n1oc(=O)n(CCCCF)c1=O)c1ccc(F)cc1", "Parameter measured": "Blackgrass plant response rating", "Measured": 8}
{"Compound": "CC(C)N(C(=O)n1oc(=O)n(C2CCCC2)c1=O)c1ccc(F)cc1", "Parameter measured": "Blackgrass plant response rating", "Measured": 8}
{"Compound": "COC(=O)C=CCn1c(=O)on(C(=O)N(c2ccc(F)cc2)C(C)C)c1=O", "Parameter measured": "Blackgrass plant response rating", "Measured": 0}
{"Compound": "CC(C)N(C(=O)n1oc(=O)n(Cc2nnsc2Cl)c1=O)c1ccc(F)cc1F", "Parameter measured": "Blackgrass plant response rating", "Measured": 0}
{"Compound": "CC(C)N(C(=O)n1oc(=O)n(C2CC3CCC2C3)c1=O)c1ccccc1 (centres unmarked)", "Parameter measured": "Blackgrass plant response rating", "Measured": 0}
{"Compound": "CC(C)N(C(=O)n1oc(=O)n(CC2=NOCC2)c1=O)c1ccccc1", "Parameter measured": "Blackgrass plant response rating", "Measured": 8}
{"Compound": "CC(C)N(C(=O)n1oc(=O)n(C(CF)CCl)c1=O)c1ccc(F)cc1 (racemic)", "Parameter measured": "Blackgrass plant response rating", "Measured": 9}
{"Compound": "CC(C)N(C(=O)n1oc(=O)n(CCC2OCCO2)c1=O)c1ccc(F)cc1", "Parameter measured": "Blackgrass plant response rating", "Measured": 7}
{"Compound": "CC(C)N(C(=O)n1oc(=O)n(C[C@H](C)Cl)c1=O)c1ccc(F)cc1F", "Parameter measured": "Blackgrass plant response rating", "Measured": 7}
{"Compound": "CCN(C(=O)n1oc(=O)n(C(C)C)c1=O)C1CCCCC1", "Parameter measured": "Blackgrass plant response rating", "Measured": 0}
{"Compound": "[2H]C([2H])([2H])n1c(=O)on(C(=O)N(c2ccc(F)cc2)C(C)C)c1=O", "Parameter measured": "Blackgrass plant response rating", "Measured": 10}
{"Compound": "Cc1nc(C)c(Cn2c(=O)on(C(=O)N(c3ccc(F)cc3F)C(C)C)c2=O)s1", "Parameter measured": "Blackgrass plant response rating", "Measured": 2}
{"Compound": "Cc1cccc(C(C)(C)C)c1-n1c(=O)on(C(=O)N(c2ccccc2)C(C)C)c1=O", "Parameter measured": "Blackgrass plant response rating", "Measured": 0}
{"Compound": "CCN(C(=O)n1oc(=O)n(C2CC2)c1=O)C1CCCCC1", "Parameter measured": "Blackgrass plant response rating", "Measured": 0}
